Target: 14-3-3/ChREBP complex (Homo sapiens, UniProt P31946+Q9NP71)
Sequence (P31946 whole entry): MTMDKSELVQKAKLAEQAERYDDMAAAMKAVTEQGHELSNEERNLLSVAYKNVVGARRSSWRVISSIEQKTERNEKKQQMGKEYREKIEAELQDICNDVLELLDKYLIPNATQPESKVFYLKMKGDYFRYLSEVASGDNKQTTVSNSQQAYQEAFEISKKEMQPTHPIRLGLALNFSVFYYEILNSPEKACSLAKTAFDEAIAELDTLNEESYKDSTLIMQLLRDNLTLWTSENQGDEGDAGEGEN
Sequence (Q9NP71 117-142 partner limits assumed): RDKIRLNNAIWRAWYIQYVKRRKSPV
Assay: 2D FA titrations fitted to thermodynamic cooperativity model
Settings: 2D FA model fit; replicate 1 (ChREBP from 20 μM)
Reported α values for the following compounds.
measured-parameter: α

- compound: "NCCCC[C@@H](C(=O)NCCC(=O)N[C@@H](CCCCNC(=S)Nc1ccc2c(c1)C(=O)OC21c2ccc(O)cc2Oc2cc(O)ccc21)C(N)=O)N1CCc2cn(nn2)-c2ccc(cc2)C[C@H](NC(=O)[C@@H](N)COP(=O)(O)O)C(=O)N[C@@H](CO)CC(=O)NCCC(=O)N[C@@H](Cc2ccc([N+](=O)[O-])cc2)C1=O [Macrocycle 2]"
  measured-parameter: "α"
  recorded-result: 46
- compound: "NCCCC[C@@H](C(N)=O)N1CCCc2cn(nn2)-c2ccc(cc2)C[C@H](NC(=O)[C@@H](N)COP(=O)(O)O)C(=O)N[C@@H](CO)CC(=O)NCCC(=O)N[C@@H](Cc2ccc([N+](=O)[O-])cc2)C1=O [Macrocycle 3]"
  measured-parameter: "α"
  recorded-result: 12.3
- compound: "NCCCC[C@@H](C(=O)NCCC(=O)N[C@@H](CCCCNC(=S)Nc1ccc2c(c1)C(=O)OC21c2ccc(O)cc2Oc2cc(O)ccc21)C(N)=O)N1Cc2cn(nn2)-c2ccc(cc2)C[C@H](NC(=O)[C@@H](N)COP(=O)(O)O)C(=O)N[C@@H](CO)CC(=O)NCCC(=O)N[C@@H](Cc2ccc([N+](=O)[O-])cc2)C1=O [Macrocycle F1]"
  measured-parameter: "α"
  recorded-result: 314
- compound: "NCCCC[C@@H](C(N)=O)N1CCCCc2cn(nn2)-c2ccc(cc2)C[C@H](NC(=O)[C@@H](N)COP(=O)(O)O)C(=O)N[C@@H](CO)CC(=O)NCCC(=O)N[C@@H](Cc2ccc([N+](=O)[O-])cc2)C1=O [Macrocycle 4]"
  measured-parameter: "α"
  recorded-result: 42.5

The origin of these recorded values is paper PMC12865133.
